# Assay Info: Ex vivo bio-distribution at 1 h and 2 h post-injection
# Assay type: in vivo, mice
# Condition Description: mouse, tumor, iv, 1 mCi, total radioactivity, untreated control tumors, 2 h post-injection; read-out: tumoral uptake, untreated control tumors, 2 h
Residues, ends and D or L forms follow the SMILES beside them. *: point of attachment. X1 = O=C(O)CN1CCN(CC(=O)O)CC(Cc2ccc(NC(=S)*)cc2)N(CC(=O)O)CC1
Readout: tissue uptake at 2 h (%ID/g)
Answer with a number only, understood to be in %ID/g.

State the recorded tissue uptake at 2 h for this entry: CCC(C)C(NC(=O)CNC(=O)CNC(=O)CNC(=S)Nc1ccc(CC2CN(CC(=O)O)CCN(CC(=O)O)CCN2CC(=O)O)cc1)C(=O)NC(CCC(=O)O)C(=O)NC(Cc1ccccc1)C(=O)NC(C=O)CC(=O)O (stereo not shown) [^68Ga-NOTA-GP, metal not drawn] (X1-GGGIEFD-aldehyde; configuration not given here)
0.55
